# test.summary: Caco-2 permeability assay
# Format: in vitro ADME
# test.conditions: human, heading: Caco-2 perm., direction not given
Listed below: Papp at 120 min, 10 μM values for each entry.
measurement.label: Papp at 120 min, 10 μM (×10⁻⁶ cm/s)

compound.structure.string: Nc1cccc(-c2ccccc2NCc2nc3ccccc3o2)c1
readout.units: ×10⁻⁶ cm/s
result.number: 18.9
//
compound.structure.string: CNc1cccc(-c2ccccc2NCc2nc3ccccc3o2)c1
readout.units: ×10⁻⁶ cm/s
result.number: 23.3
//
compound.structure.string: Nc1ccccc1-c1ccccc1NCc1nc2ccccc2o1
readout.units: ×10⁻⁶ cm/s
result.number: 21

====

# test.summary: In vivo pharmacokinetics after single i.p. or i.v. dose
# test.conditions: female, C57BL/6J, mouse, heart, iv; read-out: Heart half-life (converted)

compound: Cc1noc(-c2csc(S(=O)(=O)Nc3ccccc3C(F)(F)F)c2)c1C [CMP157]
readout.units: h
half-life: 3.5

compound: Cc1ccc(-c2ccccc2NCc2nc3ccccc3o2)s1 [CMP354]
readout.units: h
half-life: 4.8

compound: Fc1cccc(-c2ccccc2NCc2nc3ccccc3o2)c1 [CMP343]
readout.units: h
half-life: 2.1

compound: O=C(CCc1ccccc1)Nc1ccc(Br)cc1C(=O)O [CMP233]
readout.units: h
half-life: 1.3

====

# assay.system: potassium channel human Ether-a-go-go Related Gene (hERG) (Homo sapiens)
# Sequence (Q12809 whole entry): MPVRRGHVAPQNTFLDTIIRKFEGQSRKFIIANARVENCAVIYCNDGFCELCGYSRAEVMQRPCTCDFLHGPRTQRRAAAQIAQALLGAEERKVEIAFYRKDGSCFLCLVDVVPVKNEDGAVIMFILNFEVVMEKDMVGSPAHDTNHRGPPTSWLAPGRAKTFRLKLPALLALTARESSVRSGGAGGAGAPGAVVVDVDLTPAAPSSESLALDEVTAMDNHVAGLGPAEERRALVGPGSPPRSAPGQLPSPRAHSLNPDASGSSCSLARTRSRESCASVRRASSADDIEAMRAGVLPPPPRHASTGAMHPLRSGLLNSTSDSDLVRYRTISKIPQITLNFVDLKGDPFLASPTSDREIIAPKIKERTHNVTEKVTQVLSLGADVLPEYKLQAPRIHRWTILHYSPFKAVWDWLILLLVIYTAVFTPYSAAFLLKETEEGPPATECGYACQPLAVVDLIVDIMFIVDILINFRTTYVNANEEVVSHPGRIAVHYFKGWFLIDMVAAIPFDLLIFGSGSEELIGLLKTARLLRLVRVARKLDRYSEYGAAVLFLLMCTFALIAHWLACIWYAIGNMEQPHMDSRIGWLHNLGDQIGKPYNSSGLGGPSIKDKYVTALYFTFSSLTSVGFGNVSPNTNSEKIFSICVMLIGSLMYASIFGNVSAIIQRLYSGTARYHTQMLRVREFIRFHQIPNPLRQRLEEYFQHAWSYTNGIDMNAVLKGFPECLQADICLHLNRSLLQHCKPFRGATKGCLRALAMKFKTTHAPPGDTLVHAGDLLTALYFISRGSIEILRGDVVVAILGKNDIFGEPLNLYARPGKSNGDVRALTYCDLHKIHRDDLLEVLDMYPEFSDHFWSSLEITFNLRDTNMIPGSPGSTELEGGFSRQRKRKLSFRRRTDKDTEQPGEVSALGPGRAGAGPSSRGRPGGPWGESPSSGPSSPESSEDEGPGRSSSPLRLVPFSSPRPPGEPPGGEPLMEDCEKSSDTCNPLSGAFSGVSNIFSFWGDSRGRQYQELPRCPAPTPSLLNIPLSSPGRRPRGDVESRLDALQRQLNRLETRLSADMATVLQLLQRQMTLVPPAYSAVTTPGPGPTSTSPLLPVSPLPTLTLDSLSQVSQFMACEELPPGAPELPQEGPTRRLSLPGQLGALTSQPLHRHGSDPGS
# test.summary: hERG channel inhibition
Listed below: IC50 values for each entry.

compound.structure.string: Fc1cccc(-c2ccccc2NCc2nc3ccccc3o2)c1
IC50: > 30 µM
--
compound.structure.string: Cc1ccc(-c2ccccc2NCc2nc3ccccc3o2)s1
IC50: > 10 µM
--
compound.structure.string: c1csc(-c2ccccc2NCc2nc3ccccc3o2)c1
IC50: > 10 µM
--
compound.structure.string: Cc1ccsc1-c1ccccc1NCc1nc2ccccc2o1
IC50: > 10 µM
--
compound.structure.string: Fc1ccccc1-c1ccccc1NCc1nc2ccccc2o1
IC50: > 10 µM

====

# test.summary: Microsome clearance (mouse)
# Assay type: in vitro ADME
# test.conditions: mouse liver microsomes, 45 min, NADPH
Listed below: CLint scaled at 1 μM values for each entry.
measurement.label: CLint scaled at 1 μM (mL/min/kg)

compound.structure.string: CNc1ccc(-c2ccccc2NCc2nc3ccccc3o2)cc1
measurement.label: CLint scaled at 1 μM
censoring.operator: =
result.number: 900
//
compound.structure.string: Cc1ccc(-c2ccccc2NCc2nc3ccccc3o2)s1
measurement.label: CLint scaled at 1 μM
censoring.operator: >
result.number: 900
//
compound.structure.string: Fc1ccccc1-c1ccccc1NCc1nc2ccccc2o1
measurement.label: CLint scaled at 1 μM
censoring.operator: >
result.number: 900
//
compound.structure.string: Nc1ccccc1-c1ccccc1NCc1nc2ccccc2o1
measurement.label: CLint scaled at 1 μM
censoring.operator: =
result.number: 900
//
compound.structure.string: CNc1cccc(-c2ccccc2NCc2nc3ccccc3o2)c1
measurement.label: CLint scaled at 1 μM
censoring.operator: =
result.number: 900
//
compound.structure.string: c1csc(-c2ccccc2NCc2nc3ccccc3o2)c1
measurement.label: CLint scaled at 1 μM
censoring.operator: >
result.number: 900
//
compound.structure.string: Fc1cccc(-c2ccccc2NCc2nc3ccccc3o2)c1
measurement.label: CLint scaled at 1 μM
censoring.operator: >
result.number: 900
//
compound.structure.string: Cc1ccsc1-c1ccccc1NCc1nc2ccccc2o1
measurement.label: CLint scaled at 1 μM
censoring.operator: >
result.number: 900
//
compound.structure.string: Nc1cccc(-c2ccccc2NCc2nc3ccccc3o2)c1
measurement.label: CLint scaled at 1 μM
censoring.operator: =
result.number: 393
